# System: U2OS
# ASSAY NAME: Multiplex assay against U2OS
# Assay type: toxicity, cell-based
# CONDITION NOTES: human, 24 h, 10 µM, compound concentration 10 uM, replicate 1
MEASUREMENT LABEL: Population Hoechst High Intensity Objects (%)
Give bare numbers, in %.

Observe how each entry below is paired with its result.
CC(=O)NCCc1c(Cc2ccccc2)[nH]c2ccccc12 | 2
COc1cc(NC(=O)CCN2CCC(OC(=O)Nc3ccccc3-c3ccccc3)CC2)c(Cl)cc1CNC[C@H](O)c1ccc(O)c2[nH]c(=O)ccc12 | 4

Parameter requested: Population Hoechst High Intensity Objects (%). Apply to each item below.
1. COc1ccc2c(c1)C(C(=O)N(Cc1ccc(N(C)C)cc1)c1ccc(C(C)C)cc1)CCC2.Cl (centres undefined)
2. CN(C)c1ccnc2sc3c(=O)n(N4CCCCCC4)cnc3c12

Result:
2
4

###

# Tested on: HEK-293T
# ASSAY NAME: Multiplex assay against HEK293T
# Assay type: toxicity, cell-based
# CONDITION NOTES: human, 24 h, 1 µM, compound concentration 1 uM, replicate 1
Rule: measured Population Hoechst High Intensity Objects (%) below 4% gets class 1; anything equal to or greater than 4% gets class 0.

Take a look at these entries with their results.
O=C(O)c1cc2ccccc2c(Cc2c(O)c(C(=O)O)cc3ccccc23)c1O | class 0
N#Cc1c(N)nc(SCc2csc(-c3ccc(Cl)cc3)n2)c(C#N)c1-c1ccc(OCCO)cc1 | class 0
c1cc(OCCCN2CCCCC2)ccc1CN1CCCCC1 | class 0
COc1ccc2c(c1)C(C(=O)N(Cc1ccc(N(C)C)cc1)c1ccc(C(C)C)cc1)CCC2.Cl (stereo not drawn) | class 1
COc1cc(NC(=O)CCN2CCC(OC(=O)Nc3ccccc3-c3ccccc3)CC2)c(Cl)cc1CNC[C@H](O)c1ccc(O)c2[nH]c(=O)ccc12 | class 0

Query: hey, is Population Hoechst High Intensity Objects (%) for `O=C(NCC(=O)N1CC[C@H](N[C@H]2CC[C@@](O)(c3ccc(-c4ncccn4)cn3)CC2)C1)c1cccc(C(F)(F)F)c1` lower than 4% or not?
Result: class 1

Query: Record: `Oc1c(CN2CCN(c3ccccn3)CC2)cc(Cl)c2cccnc12`
Result: class 1

###

Give measured Population Healthy Nuclei (%) for each item. Keep answers brief.
# Test system: Fibroblast
# ASSAY NAME: Multiplex assay against human fibroblast
# Format: toxicity, cell-based
# CONDITION NOTES: 48 h, 1 µM, compound concentration 1 uM, replicate 1
Answers are plain numbers, in %.

CC[C@H]1OC(=O)[C@H](C)[C@@H](O[C@H]2C[C@@](C)(OC)[C@@H](O)[C@H](C)O2)[C@H](C)[C@@H](O[C@@H]2O[C@H](C)C[C@H](N(C)C)[C@H]2O)[C@@]2(C)CC(C)=C(O2)[C@H](C)[C@@H](O)[C@]1(C)O | 71
Cc1ccc(F)cc1C(=O)Nc1ccc(C(=O)N2Cc3cccn3Cc3ccccc32)c(Cl)c1 | 68

Turning now to a further compound:
Query: Population Healthy Nuclei (%); subject: `C[C@H]1[C@H]2CC[C@H]3[C@@H]4CC=C5C[C@@H](N(C)C)CC[C@]5(C)[C@H]4CC[C@]23CN1C`
Result: 73

###

# System: Fibroblast
# ASSAY NAME: Multiplex assay against human fibroblast
# Assay type: toxicity, cell-based
# CONDITION NOTES: 24 h, 10 µM, compound concentration 10 uM, replicate 1
Give measured Population Healthy Nuclei (%) for each item. Keep answers brief.
Answers are plain numbers, in %.

Parameter requested: Population Healthy Nuclei (%). Apply to each item below.
1. COc1ccc2c(c1)C(C(=O)N(Cc1ccc(N(C)C)cc1)c1ccc(C(C)C)cc1)CCC2.Cl (centres undefined)
2. N#Cc1c(N)nc(SCc2csc(-c3ccc(Cl)cc3)n2)c(C#N)c1-c1ccc(OCCO)cc1 [CAPADENOSON]
3. c1cc(OCCCN2CCCCC2)ccc1CN1CCCCC1 [JNJ-5207852]
4. Cc1ccc(C(C)(O)c2nc3ccccc3s2)c(C)c1 (centres undefined)
5. CC1(COc2ccc3c(c2)ncn3-c2ccc3cccc(N4CCC(N)CC4)c3n2)COC1 [CRENOLANIB]
6. Cl.Clc1ccc2nsnc2c1NC1=NCCN1 [TIZANIDINE HYDROCHLORIDE]
7. CN(C)CCCc1cc(C(=O)Nc2ccc(-c3ccncc3)cc2)ccc1O.Cl.Cl
8. CCNC1(C(N)=O)CCN(c2ncnc3c2nc(-c2ccccc2Cl)n3-c2ccc(Cl)cc2)CC1 [OTENABANT]

Result:
1: 72; 2: 52; 3: 65; 4: 74; 5: 51; 6: 60; 7: 63; 8: 64

Query: Population Healthy Nuclei (%); subject: O=C(O)c1cc2ccccc2c(Cc2c(O)c(C(=O)O)cc3ccccc23)c1O [PAMOIC ACID]
Result: 77
